target: human insulin-like growth factor-II (IGF-II) (human, UniProt P01344 25-91); assay: cell-based or functional assay
measurement_kind: EC50 (nM), n = 1, IGF-II Proliferation, BxPC3 cells

>  <binder>
mAb 7.251.3 (antibody, V domains shown, Fully human XenoMouse hybridoma mAb, lambda light chain (V1-13/JL2); also called ATCC PTA-7422) VH: QVQLQESGPGLVKPSETLSLTCTVSGGSISSYYWSWIRQPPGKGLEWIGYFFYSGYTNYNPSLKSRVTISVDTSKNQFSLKLSSVTAADTAVYYCACITGTTKGGMDVWGQGTTVTVSS VL: QSVLTQPPSVSGAPGQRVTISCTGSSSNIGAGYDVHWYQQLPGTAPKLLIYGNNNRPSGVPDRFSGSKSGTSASLAITGLQADDEADYYCQSFDSSLSGSVFGGGTKLTVLG

>  <result>
0.5 nM

$$$$
>  <binder>
mAb 7.34.1 (antibody, V domains shown, Fully human XenoMouse hybridoma mAb, lambda light chain (V1-13/JL2); also called ATCC PTA-7423) VH: QVQLQESGPGLVKPSETLSLTCTVSGGSISSYYWSWIRQPPGRGLEWIGYFFYSGYTNYNPSLKSRVTMSVDTSKNQFSLKLSSVTAADTAVYYCACITGTTKGGMDVWGQGATVTVSS VL: QSVLTQAPSVSGAPGQRVTISCTGRSSNIGAGYDVHWYQQFPGTAPKLLIYGNSNRPSGVPDRFSGSKSGTSASLAITGLQAEDEADYYCQSYDSSLSGSVFGGGTKLTVLG

>  <result>
0.5 nM

$$$$
>  <binder>
mAb 7.158.2 (antibody, V domains shown, Kappa light chain (L5/JK3); also called 7.158.1; 7_158_1) VH: QLQLQESGPGLVKPSETLSLTCTVSGGSIRSSSYYWGWIRQPPGKGLEWIGGIYYSGSTYYNPSLKSRVTMSVDTSKNQFSLKLSSVTAADTAVYYCARQRGHSSGWWYFDLWGRGTLVTVSS VL: DIQMTQSPSSVSASVGDSVTITCRASQGISSYLAWYQQKPGKAPKLLIYAASSLQSGVPSRFSGNGSGTDFTLTISSLQPEDFATYYCQQANNFPFTFGPGTKVDIKR

>  <result>
0.0013 nM

$$$$
>  <binder>
mAb 7.159.2 (antibody, V domains shown, Fully human XenoMouse hybridoma mAb, lambda light chain (V1-19/JL2); Sister clones 7.159.1 and 7.159.2 are said to be identical; also called 7.159.1; 7_159_1) VH: QVQLVQSGAEVKKPGASVKVSCKASGYTFTSYDINWVRQATGQGLEWMGWMNPNSGNTGYAQKFQGRVTMTRNTSISTAYMELSSLRSEDTAVYYCARDPYYYYYGMDVWGQGTTVTVSS VL: QSVLTQPPSVSAAPGQKVTISCSGSSSNIENNHVSWYQQLPGTAPKLLIYDNNKRPSGIPDRFSGSKSGTSATLGITGLQTGDEADYYCETWDTSLSAGRVFGGGTKLTVLG

>  <result>
0.8 nM

$$$$

Values compiled from patent US20070196376A1.
